Answer each item with its documented binning response (no name or unit printed).
- SYSTEM_NAME: T1, FLRT3 (antigen of the binning assay of Table 2) (Homo sapiens (Human), UniProt Q9NZU0 29-528, limits assumed)
- T1 construct: the whole entry for FLRT3 is named
- T1 sequence: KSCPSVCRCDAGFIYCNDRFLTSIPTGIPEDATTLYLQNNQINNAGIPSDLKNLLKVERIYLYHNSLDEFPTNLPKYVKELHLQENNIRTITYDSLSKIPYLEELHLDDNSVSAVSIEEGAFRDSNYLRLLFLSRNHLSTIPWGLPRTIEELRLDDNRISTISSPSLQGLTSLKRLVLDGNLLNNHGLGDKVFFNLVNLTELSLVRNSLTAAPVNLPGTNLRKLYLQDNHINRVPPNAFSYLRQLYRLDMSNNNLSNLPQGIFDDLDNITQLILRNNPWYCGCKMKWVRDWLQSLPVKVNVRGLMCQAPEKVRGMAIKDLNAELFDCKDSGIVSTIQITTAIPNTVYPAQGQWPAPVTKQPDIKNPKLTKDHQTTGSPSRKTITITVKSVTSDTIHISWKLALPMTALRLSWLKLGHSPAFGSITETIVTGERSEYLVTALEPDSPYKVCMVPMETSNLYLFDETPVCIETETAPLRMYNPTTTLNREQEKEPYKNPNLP
- METHOD_NOTES: antibody binning matrix (Table 2); competitor: 1H5
No unit in the answer, please; the number alone is enough.

Problem: Suppose we examine the binder 14D3 (antibody, V domains shown, Variable domains only) VH: EIQLQQSGAELVKPGASVKISCKASGYSFTGYNMNWVKQSHGKSLEWIGNITPYYGSASYNQKFKGKATLTVDKSSSTAYMQLNSLTSEDSAVYYCARRSYDYDENAMDYWGQGTSVTVSS VL: DIVMTQSHKFMSTSVGDRVSITCKASQDLSTAVAWYQQKPGQSPKLLIYSASYRYTGVPDRFTGSGSGTDFTFTISSVQAEDLAVYYCQQHYSTPLTFGAGTKLELK ; what binning response (no name or unit printed) value has been reported?
Solution: 0.644

Problem: Suppose we examine the binder 1H5 (antibody, V domains shown, Variable domains only) VH: EVQLQQSGPELVKPGASVKMSCKASGYTFTDYYMNWVKQSHGKSLEWIGRVNPSNGVTSYNQKFKGKAALTVDKSLSTAYMQLNSLTSEDSAVYYCARDFLMDYWGQGTSVTVSS VL: DIVMTQSHKFMSTSVGDRVTITCKASQDVGTAVAWYQQKPGQSPKLLIYWASTRHTGVPDRFTGSGSGTDFTLTISNVQSEDLADYFCQQYSSYPTFGGGTKLEIK ; what binning response (no name or unit printed) value has been reported?
Solution: -0.0568

Problem: Suppose we examine the binder 2F7 (antibody, V domains shown, Variable domains only) VH: EVQLQQSGPELVKPGASVKMSCKASGYTFTDYYMNWVKQSHGKSLEWIGRVYPSNSGASYNQKFKGKATLTVDKSLSTAYMQLNSLTSEDSAVYYCASSYYFDYWGQGTTLTVSS VL: DIVMTQSHKFMSTSIGDRVNITCKASQDVGTAVAWFQQKPGQSPKLLIYWASTRHTGVPDRFTGSGSGTDFTLTISNVQSEDLADYFCQQYSSYPTFGAGTTLELK ; what binning response (no name or unit printed) value has been reported?
Solution: -0.116
